Protein target, amino acids: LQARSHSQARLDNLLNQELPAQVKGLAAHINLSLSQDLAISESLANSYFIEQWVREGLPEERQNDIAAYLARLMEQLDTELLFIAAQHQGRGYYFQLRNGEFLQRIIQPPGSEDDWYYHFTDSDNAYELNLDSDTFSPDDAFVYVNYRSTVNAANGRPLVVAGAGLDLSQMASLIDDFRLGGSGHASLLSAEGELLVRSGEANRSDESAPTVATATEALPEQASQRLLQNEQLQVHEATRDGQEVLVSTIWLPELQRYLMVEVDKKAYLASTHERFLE
Consider the following compounds and their measured Kd readings.

[
  {
    "Structure As Smiles": "O=c1[nH]cnc2nc[nH]c12",
    "Result Type": "Kd",
    "Experimental Value": "2.5 µM"
  }
]

Let us examine a further case.
Data point: Nc1nc2nc[nH]c2c(=O)[nH]1 ; Kd = 7 µM
